# SYSTEM TESTED: human F508del-CFTR (Homo sapiens, UniProt P13569, DEL508-508)
# Sequence (P13569 with tags, fused parts or gaps DEL508-508): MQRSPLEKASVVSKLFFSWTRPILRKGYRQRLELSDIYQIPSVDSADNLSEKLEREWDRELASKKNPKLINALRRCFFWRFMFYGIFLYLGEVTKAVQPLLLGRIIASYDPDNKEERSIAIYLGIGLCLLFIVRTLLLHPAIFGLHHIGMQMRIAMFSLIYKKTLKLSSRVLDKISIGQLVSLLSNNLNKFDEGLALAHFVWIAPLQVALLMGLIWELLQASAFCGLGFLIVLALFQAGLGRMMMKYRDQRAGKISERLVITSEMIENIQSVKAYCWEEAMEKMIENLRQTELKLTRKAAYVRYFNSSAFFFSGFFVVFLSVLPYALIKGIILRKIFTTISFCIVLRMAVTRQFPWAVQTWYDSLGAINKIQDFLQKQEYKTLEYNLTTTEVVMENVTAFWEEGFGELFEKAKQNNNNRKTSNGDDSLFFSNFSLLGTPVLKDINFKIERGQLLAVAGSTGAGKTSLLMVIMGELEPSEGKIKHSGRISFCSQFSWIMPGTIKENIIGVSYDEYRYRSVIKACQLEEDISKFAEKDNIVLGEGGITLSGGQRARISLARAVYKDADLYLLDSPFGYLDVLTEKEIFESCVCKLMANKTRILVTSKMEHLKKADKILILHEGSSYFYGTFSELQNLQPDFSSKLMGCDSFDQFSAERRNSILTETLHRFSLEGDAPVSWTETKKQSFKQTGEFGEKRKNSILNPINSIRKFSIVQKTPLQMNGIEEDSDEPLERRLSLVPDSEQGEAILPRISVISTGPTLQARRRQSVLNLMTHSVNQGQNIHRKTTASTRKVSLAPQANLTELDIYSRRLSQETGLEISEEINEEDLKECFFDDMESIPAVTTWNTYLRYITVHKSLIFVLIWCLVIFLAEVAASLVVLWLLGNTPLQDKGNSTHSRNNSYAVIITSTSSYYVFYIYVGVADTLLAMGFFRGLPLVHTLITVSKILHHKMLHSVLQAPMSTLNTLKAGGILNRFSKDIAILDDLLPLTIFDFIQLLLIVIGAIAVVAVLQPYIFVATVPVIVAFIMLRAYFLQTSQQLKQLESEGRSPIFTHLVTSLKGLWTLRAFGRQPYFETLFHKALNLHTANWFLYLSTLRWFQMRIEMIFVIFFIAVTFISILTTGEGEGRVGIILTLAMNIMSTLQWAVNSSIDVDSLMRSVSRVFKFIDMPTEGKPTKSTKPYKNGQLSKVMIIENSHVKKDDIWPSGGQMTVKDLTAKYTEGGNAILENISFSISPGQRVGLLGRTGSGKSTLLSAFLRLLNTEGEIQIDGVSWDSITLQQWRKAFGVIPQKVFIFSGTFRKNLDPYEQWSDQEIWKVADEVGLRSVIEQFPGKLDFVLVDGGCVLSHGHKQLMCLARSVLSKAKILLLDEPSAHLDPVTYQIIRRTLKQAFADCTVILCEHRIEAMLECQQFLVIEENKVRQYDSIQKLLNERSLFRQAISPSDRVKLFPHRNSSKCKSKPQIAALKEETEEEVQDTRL
# MEASUREMENT NOTES: F508del-CFTR cell surface expression (corrector activity), DiscoveRx ß-galactosidase complementation chemiluminescence assay in recombinant U2OS cell line
# CONDITIONS: EC50, F508del-CFTR cell surface expression, U2OS cells, 16h compound incubation; geomean of several measurements
Labelling: EC50 reported below 100 nM becomes rule met; at or above becomes rule not met.

COMPOUND: COc1noc(CCNC(=O)[C@@H]2CC(=O)N(C)[C@@H](CC(C)C)C(=O)N(C)[C@H](CC(F)(F)F)C(=O)N[C@H](Cc3ccccc3)COc3cc(C)c4ncccc4c3C(=O)N2)n1 [Example 975]
DISCRETE LABEL: rule not met
--
COMPOUND: COc1noc(CCNC(=O)[C@@H]2CC(=O)N(C)[C@@H](CC(C)C)C(=O)N(C)[C@@H](CC(F)(F)F)C(=O)N[C@H](Cc3ccccc3)COc3ccc4cnc(C)cc4c3C(=O)N2)n1 [Example 939]
DISCRETE LABEL: rule not met
--
COMPOUND: CCOCC[C@@H]1C(=O)N[C@H](Cc2ccccc2)COc2ccc3ncc(F)cc3c2C(=O)N[C@H](C(=O)NCCc2nc(C3CC3)no2)CC(=O)N(C)[C@@H](CC(C)C)C(=O)N1C [Example 976]
DISCRETE LABEL: rule not met
--
COMPOUND: CC(C)C[C@H]1C(=O)N(C)[C@H](C)C(=O)N[C@H](Cc2ccccc2)COc2ccc3ncc(F)cc3c2C(=O)N[C@H](C(=O)NCCc2noc(C3CC3)n2)CC(=O)N1C [Example 799]
DISCRETE LABEL: rule not met
--
COMPOUND: COc1cc(CCNC(=O)[C@@H]2CC(=O)N(C)[C@@H](CC(C)C)C(=O)N(C)[C@H](Cc3nc(C(F)(F)F)no3)C(=O)N[C@H](Cc3ccccc3)COc3cc(C)nc(OC)c3C(=O)N2)on1 [Example 897]
DISCRETE LABEL: rule met

---

# SYSTEM TESTED: human F508del-CFTR (Homo sapiens, UniProt P13569, DEL508-508)
# MEASUREMENT NOTES: F508del-CFTR cell surface expression (corrector activity), DiscoveRx ß-galactosidase complementation chemiluminescence assay in recombinant U2OS cell line
# CONDITIONS: EC50, F508del-CFTR cell surface expression, U2OS cells, 16h compound incubation; geomean values
The entries below come with measured EC50 values attached.

INPUT SMILES: Cc1nc2ccc3c(c2o1)C(=O)N[C@H](C(=O)NCCc1cccc(OC(F)F)c1)CC(=O)N(C)[C@@H](CC(C)C)C(=O)N1CCOC[C@@H]1C(=O)N[C@H](Cc1ccccc1)CO3
EC50 / nM: 781
//
INPUT SMILES: Cc1cc(CCNC(=O)[C@@H]2CC(=O)N(C)[C@@H](CC(C)C)C(=O)N(C)C3(CC3)C(=O)N[C@H](Cc3ccccc3)COc3nc4ccccn4c3C(=O)N2)on1
EC50 / nM: 961
//
INPUT SMILES: COc1cccc(CCNC(=O)[C@@H]2CC(=O)N(C)[C@@H](CC(C)C)C(=O)N3CCCC[C@H]3C(=O)N[C@H](Cc3ccccc3)COc3ccc4nc(C)oc4c3C(=O)N2)c1
EC50 / nM: 465
//
INPUT SMILES: COc1nccc2c1C(=O)N[C@H](C(=O)NCCc1noc(C3CC3)n1)CC(=O)N(C)[C@@H](CC(C)C)C(=O)N(C)[C@@H](CC1CCC(F)(F)CC1)C(=O)N[C@H](Cc1ccccc1)CO2
EC50 / nM: 594
//
INPUT SMILES: CC(C)C[C@H]1C(=O)N2CCCC[C@@H]2C(=O)N[C@H](Cc2ccccc2)COc2ccc3ncc(F)cc3c2C(=O)N[C@H](C(=O)NCCc2noc(C3CC3)n2)CC(=O)N1C
EC50 / nM: 185
//
INPUT SMILES: CC[C@@H]1C(=O)N[C@H](Cc2ccccc2)COc2cc(C)nc(OC)c2C(=O)N[C@H](C(=O)NCCc2cccc(OC)c2)CC(=O)N(C)[C@@H](CC(C)C)C(=O)N1C
EC50 / nM: 751
//
INPUT SMILES: COc1nccc2c1C(=O)N[C@H](C(=O)NCCc1cc(C3CC3)no1)CC(=O)N(C)[C@@H](CC(C)C)C(=O)N1CC[C@@H](c3ccccc3)C[C@@H]1C(=O)N[C@H](Cc1ccccc1)CO2
EC50 / nM: 103
//
INPUT SMILES: Cc1cc(CCNC(=O)[C@@H]2CC(=O)N(C)[C@@H](CC(C)C)C(=O)N3CCN(CC(C)C)C[C@@H]3C(=O)N[C@H](Cc3ccccc3)COc3ccc4ccccc4c3C(=O)N2)on1
EC50 / nM: 75
//
INPUT SMILES: CCN1C(=O)C[C@@H](C(=O)NCCc2cc(C)no2)NC(=O)c2c(cnc3ccccc23)OC[C@@H](Cc2ccccc2)NC(=O)[C@H]2CCCCN2C(=O)[C@@H]1CC(C)C
EC50 / nM: 318
//
INPUT SMILES: COc1nccc2c1C(=O)N[C@H](C(=O)NCCc1cc(C3CC3)on1)CC(=O)N(C)[C@@H](CC(C)C)C(=O)N1CCCC[C@@H]1C(=O)N[C@H](Cc1ccccc1)CO2
EC50 / nM: 300

---

# SYSTEM TESTED: human F508del-CFTR (Homo sapiens, UniProt P13569, DEL508-508)
# MEASUREMENT NOTES: F508del-CFTR cell surface expression (corrector activity), DiscoveRx ß-galactosidase complementation chemiluminescence assay in recombinant U2OS cell line;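 also: U2OS cells co-expressing ProLink-tagged F508del-CFTR and a membrane-anchored enzyme acceptor, where more surface CFTR restores β-galactosidase activity measured by chemiluminescence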
# CONDITIONS: U2OS, in relation to the Emax of the corrector lumacaftor (=100%); U2OS cell line, 16h compound incubation; arithmetic mean values
Parameter Emax: see the listing below.
RECORDED METRIC: Emax (%)

COMPOUND: CC(C)C[C@H]1C(=O)N(CCC2CCCCC2)CC(=O)N[C@H](Cc2ccccc2)COc2cnc3c(F)cccc3c2C(=O)N[C@H](C(=O)NCCc2ccc3c(c2)OCO3)CC(=O)N1C
SYSTEM TESTED: human F508del-CFTR (Homo sapiens, UniProt P13569, DEL508-508)
REPORTED MEASUREMENT: 264
//
COMPOUND: CC(C)C[C@H]1C(=O)N2CCCC[C@@H]2C(=O)N[C@H](Cc2ccccc2)COc2cnc3ccccc3c2C(=O)N[C@H](C(=O)NCCc2ccccc2)CC(=O)N1C
SYSTEM TESTED: human F508del-CFTR (Homo sapiens, UniProt P13569, DEL508-508)
REPORTED MEASUREMENT: 237
//
COMPOUND: COc1cccc(CCNC(=O)[C@@H]2CC(=O)N(C)[C@@H](CC(C)C)C(=O)N3CCN(C4CC4)C[C@@H]3C(=O)N[C@H](Cc3ccccc3)COc3ccc4ncn(C)c4c3C(=O)N2)c1
SYSTEM TESTED: human F508del-CFTR (Homo sapiens, UniProt P13569, DEL508-508)
REPORTED MEASUREMENT: 155
//
COMPOUND: CC(C)C[C@H]1C(=O)N(C)C2(CC2)C(=O)N[C@H](Cc2ccccc2)COc2cnc3ccc(F)cc3c2C(=O)N[C@H](C(=O)NCCc2cnn(C)c2)CC(=O)N1C
SYSTEM TESTED: human F508del-CFTR (Homo sapiens, UniProt P13569, DEL508-508)
REPORTED MEASUREMENT: 320
//
COMPOUND: CN1C(=O)C[C@@H](C(=O)NCCc2ccc3c(c2)OCO3)NC(=O)c2c(ccc3ccccc23)OC[C@@H](Cc2ccccc2)NC(=O)CN(C[C@H]2CCCCO2)C(=O)[C@@H]1CC1CCC1
SYSTEM TESTED: human F508del-CFTR (Homo sapiens, UniProt P13569, DEL508-508)
REPORTED MEASUREMENT: 173
//
COMPOUND: COc1cccc2c1C(=O)N[C@H](C(=O)NCCc1ccc(C)cc1)CC(=O)N(C)[C@@H](CC(C)C)C(=O)N(CCC1CCCCC1)CC(=O)N[C@H](Cc1ccccc1)CO2
SYSTEM TESTED: human F508del-CFTR (Homo sapiens, UniProt P13569, DEL508-508)
REPORTED MEASUREMENT: 160
//
COMPOUND: COc1cc2c(cc1OC)C(=O)N[C@H](C(=O)NCCc1ccc(C)cc1)CC(=O)N(C)[C@@H](CC(C)C)C(=O)N(C)CC(=O)N[C@H](Cc1ccccc1)CO2
SYSTEM TESTED: human F508del-CFTR (Homo sapiens, UniProt P13569, DEL508-508)
REPORTED MEASUREMENT: 107
//
COMPOUND: CCc1ccc(CCNC(=O)[C@@H]2CC(=O)N(C)[C@@H](CC(C)C)C(=O)N(C)CC(=O)N[C@H](Cc3ccccc3)COc3ccncc3C(=O)N2)cc1
SYSTEM TESTED: human F508del-CFTR (Homo sapiens, UniProt P13569, DEL508-508)
REPORTED MEASUREMENT: 111
//
COMPOUND: COc1ccc(CCNC(=O)[C@@H]2CC(=O)N(C)[C@@H](CC(C)C)C(=O)N(C)C3(CC3)C(=O)N[C@H](Cc3ccccc3)COc3cnc4ccccc4c3C(=O)N2)cc1
SYSTEM TESTED: human F508del-CFTR (Homo sapiens, UniProt P13569, DEL508-508)
REPORTED MEASUREMENT: 242
//
COMPOUND: Cc1cc2c(cn1)C(=O)N[C@H](C(=O)NCCc1ccc3c(c1)OCO3)CC(=O)N(C)[C@@H](CC(C)C)C(=O)N(CCC1CCCCC1)CC(=O)N[C@H](Cc1ccccc1)CO2
SYSTEM TESTED: human F508del-CFTR (Homo sapiens, UniProt P13569, DEL508-508)
REPORTED MEASUREMENT: 172
//
COMPOUND: CN1C(=O)C[C@@H](C(=O)NCCc2ccc3c(c2)OCO3)NC(=O)c2c(ccc3ccccc23)OC[C@@H](Cc2ccccc2)NC(=O)CN(CC[C@@H]2CCCCO2)C(=O)[C@@H]1CC1CCC1
SYSTEM TESTED: human F508del-CFTR (Homo sapiens, UniProt P13569, DEL508-508)
REPORTED MEASUREMENT: 224
//
COMPOUND: COc1nccc2c1C(=O)N[C@H](C(=O)NCCc1cc(C(F)F)no1)CC(=O)N(C)[C@@H](CC(C)C)C(=O)N1CCCC[C@@H]1C(=O)N[C@H](Cc1ccccc1)CO2
SYSTEM TESTED: human F508del-CFTR (Homo sapiens, UniProt P13569, DEL508-508)
REPORTED MEASUREMENT: 295
//
COMPOUND: CN1C(=O)C[C@@H](C(=O)NCCc2ccc3c(c2)OCO3)NC(=O)c2c(ccc3ccccc23)OC[C@@H](Cc2ccccc2)NC(=O)CN(C[C@@H]2CCCCO2)C(=O)[C@@H]1CC1CCCCC1 (racemic)
SYSTEM TESTED: human F508del-CFTR (Homo sapiens, UniProt P13569, DEL508-508)
REPORTED MEASUREMENT: 118
//
COMPOUND: COc1cccc(CCNC(=O)[C@@H]2CC(=O)N(C)[C@@H](CC(C)C)C(=O)N3CCCC[C@@H]3C(=O)N[C@H](Cc3ccccc3)COc3cnc4ccccc4c3C(=O)N2)c1OC
SYSTEM TESTED: human F508del-CFTR (Homo sapiens, UniProt P13569, DEL508-508)
REPORTED MEASUREMENT: 232
//
COMPOUND: COc1cc2c(cc1OC)C(=O)N[C@H](C(=O)NCCc1ccc3c(c1)OCO3)CC(=O)N(C)[C@@H](CC1CC1)C(=O)N(CCC1CCCCC1)CC(=O)N[C@H](Cc1ccccc1)CO2 (racemic)
SYSTEM TESTED: human F508del-CFTR (Homo sapiens, UniProt P13569, DEL508-508)
REPORTED MEASUREMENT: 130
//
COMPOUND: COc1cccc(CCNC(=O)[C@@H]2CC(=O)N(C)[C@@H](CC(C)C)C(=O)N(CCC3CCCCC3)CC(=O)N[C@H](Cc3ccccc3)COc3ccc4c(c3C(=O)N2)OCO4)c1
SYSTEM TESTED: human F508del-CFTR (Homo sapiens, UniProt P13569, DEL508-508)
REPORTED MEASUREMENT: 282
//
COMPOUND: CN1C(=O)C[C@@H](C(=O)NCCc2ccc3c(c2)OCO3)NC(=O)c2c(ccc3ccccc23)OC[C@@H](Cc2ccccc2)NC(=O)CN(CC[C@H]2CCCCO2)C(=O)[C@@H]1CC1CCCCC1 (racemic)
SYSTEM TESTED: human F508del-CFTR (Homo sapiens, UniProt P13569, DEL508-508)
REPORTED MEASUREMENT: 160
//
COMPOUND: COc1ccc(CCNC(=O)[C@@H]2CC(=O)N(C)[C@@H](CC(C)C)C(=O)N3CCCC[C@@H]3C(=O)N[C@H](Cc3ccccc3)COc3cnc4ccccc4c3C(=O)N2)cc1
SYSTEM TESTED: human F508del-CFTR (Homo sapiens, UniProt P13569, DEL508-508)
REPORTED MEASUREMENT: 299
//
COMPOUND: COc1cccc2c1C(=O)N[C@H](C(=O)NCCc1ccc3c(c1)OCC3)CC(=O)N(C)[C@@H](CC(C)C)C(=O)N(CCC1CCCCC1)CC(=O)N[C@H](Cc1ccccc1)CO2 (racemic)
SYSTEM TESTED: human F508del-CFTR (Homo sapiens, UniProt P13569, DEL508-508)
REPORTED MEASUREMENT: 240
//
COMPOUND: COc1cc2c(cc1OC)C(=O)N[C@H](C(=O)NCCc1ccc3c(c1)OCO3)CC(=O)N(C)[C@@H](CC(C)C)C(=O)N(C[C@H]1CCCCO1)CC(=O)N[C@H](Cc1ccccc1)CO2
SYSTEM TESTED: human F508del-CFTR (Homo sapiens, UniProt P13569, DEL508-508)
REPORTED MEASUREMENT: 100
